# credit: patent CN114790245A

biological target: 血浆激肽释放酶(plasma kallikrein,PK) (human, UniProt P03952 20-638); assay: cell-based or functional assay
Sequence (P03952 20-638 limits assumed): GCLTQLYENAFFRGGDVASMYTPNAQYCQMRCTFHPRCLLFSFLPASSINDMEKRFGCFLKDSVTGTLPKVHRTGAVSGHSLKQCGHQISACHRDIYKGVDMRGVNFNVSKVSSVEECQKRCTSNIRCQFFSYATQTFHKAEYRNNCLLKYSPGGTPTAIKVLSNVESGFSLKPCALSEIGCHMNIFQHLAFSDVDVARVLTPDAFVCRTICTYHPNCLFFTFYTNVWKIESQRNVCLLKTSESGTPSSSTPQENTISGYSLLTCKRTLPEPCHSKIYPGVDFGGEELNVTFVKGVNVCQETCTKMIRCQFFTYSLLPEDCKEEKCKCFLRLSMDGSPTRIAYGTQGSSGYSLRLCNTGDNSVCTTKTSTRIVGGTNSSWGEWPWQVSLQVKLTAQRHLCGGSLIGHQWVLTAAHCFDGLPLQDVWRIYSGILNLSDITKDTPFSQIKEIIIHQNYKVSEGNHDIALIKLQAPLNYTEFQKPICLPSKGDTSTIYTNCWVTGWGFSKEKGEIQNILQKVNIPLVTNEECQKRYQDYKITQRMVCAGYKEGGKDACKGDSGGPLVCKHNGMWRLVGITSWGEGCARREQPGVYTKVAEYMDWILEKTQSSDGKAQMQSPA
Assay Endpoint: IC50(nM), PK enzyme activity on H-Pro-Phe-Arg-AMC (fluorescence)

[
  {
    "Binder": "KH13 (antibody, human IgG1, kappa, V domains shown) VH: QVQLVQSGAEVKKPGASVKVSCKASGYTFTNYWMHWVRQAPGQGLEWMGAIYPGDSDTSYNQKFKGRVTMTRDTSTSTVYMELSSLRSEDTAVYYCARERAYYRYDEDFDYWGQGTLVTVSS VL: DIQMTQSPSSLSASVGDRVTITCSATSIINSNYFHWYQQKPGKAPKLLIYRTSNLASGVPSRFSGSGSGTDFTFTISSLQPEDIATYYCQQGSSLPRTFGGGTKLEIKR",
    "Units": "nM",
    "Observed": 0.221
  }
]
